Test system: LoVo
Experiment: Resistance index measured as the ratio of IC50 of LoVo/Dx cell line to that of LoVo cell line.
Format: functional, Homo sapiens
We begin with a simple list: items and their reported RI.
The reply should be a number, written without any unit.

Worked examples follow.
| molecule | measuredQuantity | reported |
| --- | --- | --- |
| CN(C)CCn1nc2c3c(c(NCCO)ccc31)C(=O)c1ccncc1-2 | RI | 42.5 |
| COc1cccc2c1C(=O)c1c(O)c3c(c(O)c1C2=O)C[C@@](O)(C(=O)CO)C[C@@H]3O[C@H]1C[C@H](N)[C@H](O)[C@H](C)O1 [DOXORUBICIN] | RI | 91.3 |
| CN(C)CCNc1ccc2c3c(nn2CCN)-c2cnccc2C(=O)c13 | RI | 53 |

q: I am curious: what RI value has been reported for CN(C)CCCNc1ccc2c3c(nn2CCN(C)C)-c2cnccc2C(=O)c13 ?
a: 6.4

q: // lookup RI for CN(C)CCn1nc2c3c(c(NCCNCCO)ccc31)C(=O)c1ccncc1-2
a: 206

q: For the molecule CN(C)CCCn1nc2c3c(c(NCCN(C)C)ccc31)C(=O)c1ccncc1-2 , what RI is on record?
a: 8.3

q: Which measured RI value corresponds to CN(C)CCCn1nc2c3c(c(NCCNCCO)ccc31)C(=O)c1ccncc1-2 ?
a: 300

q: Could you share which RI value was measured for Cl.Cl.O=C1c2c(O)cccc2-c2nn(CCNCCO)c3ccc(NCCNCCO)c1c23 ?
a: 840
